Method description: Pharmacokinetic analysis in male SD rats after IV bolus, plasma by LC-MS/MS
Type: in vivo
Recorded conditions: rat, IV bolus 0.04 mg/kg, 3 rats per group, read-out: T1/2, ± SD (converted)
Measurement name: half-life

INSERT INTO measurements (compound, experimental_result) VALUES
  ('[2H]C([2H])([2H])C(O)(Cn1c(COCC)nc2c(N)nc3ccccc3c21)C([2H])([2H])[2H]', '1.85 h'),
  ('[2H]C([2H])([2H])C(O)(C([2H])([2H])[2H])C([2H])([2H])n1c(COCC)nc2c(N)nc3ccccc3c21', '1.97 h'),
  ('[2H]C([2H])([2H])C([2H])([2H])OCc1nc2c(N)nc3ccccc3c2n1CC(C)(C)O', '2.41 h'),
  ('CCOCc1nc2c(N)nc3ccccc3c2n1CC(C)(C)O [Resiquimod, reference compound]', '1.03 h');
